Measured Inhibition accompanies every entry in the list below.
- Test system: Plasmodium falciparum
- experimentNotes: GSK_TCMDC: Inhibition of Plasmodium falciparum 3D7 in whole red blood cells, using parasite LDH activity as an index of growth. Test compounds present at 2uM
- Type: functional
Only the number, expressed in %, is required.

As a guide, the following entries are already answered.
[
  {
    "molecule": "CN1CCC(NCc2cccc(-c3cccc(-c4nc5cc(C(F)(F)F)ccc5[nH]4)c3)c2)CC1.O=C(O)C(F)(F)F",
    "measurementTarget": "Plasmodium falciparum",
    "unitAbbrev": "%",
    "Inhibition": 100
  },
  {
    "molecule": "CC(C)(CNCc1cc(Cl)cc(Cl)c1)c1nc(-c2ccnc(N)n2)c(-c2ccc(Cl)c(O)c2)[nH]1.Cl",
    "measurementTarget": "Plasmodium falciparum",
    "unitAbbrev": "%",
    "Inhibition": 92
  },
  {
    "molecule": "CN(C)S(=O)(=O)c1ccc(N2C(=O)C3C(C2=O)C2(c4ccccc4)C(=O)C3(c3ccccc3)C(c3ccccc3)=C2c2ccccc2)cc1 (stereo not drawn)",
    "measurementTarget": "Plasmodium falciparum",
    "unitAbbrev": "%",
    "Inhibition": 92
  },
  {
    "molecule": "Br.CCCC1N=C(N)N=C(N)N1c1ccc(C)cc1 (stereo not drawn)",
    "measurementTarget": "Plasmodium falciparum",
    "unitAbbrev": "%",
    "Inhibition": 94
  },
  {
    "molecule": "Cc1c(C(=O)N2CCCC(C(F)(F)F)C2)sc2cccc(F)c12 (stereo not drawn)",
    "measurementTarget": "Plasmodium falciparum",
    "unitAbbrev": "%",
    "Inhibition": 99
  }
]

[ask] State the recorded Inhibition for this entry: CC1CN(c2cnn(Cc3cccc(NC(=O)Nc4ccc(-c5ccccc5)cc4)c3)c(=O)c2Cl)CC(C)N1.O=C(O)C(F)(F)F (stereo not drawn)
[reply] 100

[ask] Here is the next molecule: `COc1cc(Br)ccc1N1CCN(CCCCNC(=O)c2ccc(NC(=O)c3ccc(Cl)cc3)cc2)CC1.Cl`
[reply] 96

[ask] Would you mind doing `N=C1NC(c2ccccc2)(c2ccccc2)C(=O)N1CC=Cc1ccccc1.O=C(O)C(F)(F)F` as well?
[reply] 98

----------
- Tested on: Plasmodium falciparum
- experimentNotes: GSK_TCMDC: Inhibition of Plasmodium falciparum Dd2 in whole red blood cells, using parasite LDH activity as an index of growth. Test compounds present at 2uM
- Type: functional
measure: Inhibition

[
  {
    "compound": "CN1CCN(Cc2cccc(-c3ccc4c(Nc5ccc(Oc6cccnc6)cc5)ccnc4c3)c2)CC1",
    "measurementTarget": "Plasmodium falciparum",
    "Inhibition": "100%"
  }
]

[ask] Please look up its Inhibition: `CO/C(=C/C=C/c1cc2cc(Cl)c(Cl)cc2[nH]1)C(=O)NC1CC(C)(C)N(C)C(C)(C)C1`
[reply] 85%

[ask] Can you check O=C(O)C(F)(F)F.OC1CCCN(Cc2ccc(-c3cccc(-c4nc5cc(F)ccc5[nH]4)c3)cc2)C1 (centres undefined) next?
[reply] 49%

[ask] Now consider Cc1ccccc1C1CCN(C2CCC(NC(=O)c3cc(-c4ccc(Cl)cc4)cs3)CC2)CC1 (centres undefined) and answer again.
[reply] 100%

----------
Here, each record is paired with measured Inhibition data.
- Test system: Plasmodium falciparum
- experimentNotes: GSK_TCMDC: Inhibition of Plasmodium falciparum Dd2 in whole red blood cells, using parasite LDH activity as an index of growth. Test compounds present at 2uM
- Format: functional
Field: numeric (%). Do not append units.

Illustrative cases are given below, each with its answer.
[
  {
    "compound": "Cc1cc(N[C@@H](Cc2ccccc2)C(=O)NCc2cccc(F)c2)nc(NCc2ccccc2C)n1.O=C(O)C(F)(F)F",
    "recordedValue": 75
  },
  {
    "compound": "COc1ccc(Nc2nccc(N3CCC(NC(=O)Nc4cccc(C(C)=O)c4)C3)n2)cc1 (configuration not stated)",
    "recordedValue": 79
  },
  {
    "compound": "COc1ccc(CN2CCCC(N3CC4(OC3=O)c3ccccc3-c3ccccc34)C2)c(O)c1 (configuration not stated)",
    "recordedValue": 34
  }
]

[ask] Any idea what its Inhibition is? The compound is `CCNc1cc(C(=O)N[C@@H](Cc2ccccc2)[C@H](O)CNC2CCC(F)(F)CC2)c(F)c(N2CCCCS2(=O)=O)c1.O=CO`
[reply] 97

[ask] # repeat for `COc1ccc(NC(=O)Nc2nc3ccccc3s2)cc1N1CCN(C)CC1`
[reply] 22

[ask] And `Fc1ccc2[nH]c(-c3ccc(-c4cccc(CN5CCC(CCN6CCCCC6)CC5)c4)cc3)nc2c1.O=C(O)C(F)(F)F` ?
[reply] 100

[ask] Proceed to Cc1cccc2nc(-c3ccc(-c4ccc(CN5CCCC(N)C5)cc4)s3)[nH]c12.O=C(O)C(F)(F)F (configuration not stated)
[reply] 100

[ask] Would you kindly repeat that for `CC(C)C[C@H](Nc1ccnc(NCC2CCCCC2)n1)C(=O)NCCc1ccccc1.O=C(O)C(F)(F)F` ?
[reply] 66

[ask] Also, `Cc1ccccc1C1CCN(c2ccc(C(=O)NC3CC3)cn2)CC1.O=C(O)C(F)(F)F` please.
[reply] 95
